# Assay Procedure: in vivo
# Settings: male, C57BL/6, mouse, po, 5 mg/kg, Tmax
Outcome Measure: Tmax (min)

CCN(C(=O)c1c(O)c2c(Cl)cccc2n(C)c1=O)c1ccccc1    30

---

# Assay Procedure: in vivo
# Settings: male, C57BL/6, mouse, po, 5 mg/kg, AUCINF
Outcome Measure: AUC(0-inf) (ng·h/mL)

CCN(C(=O)c1c(O)c2c(Cl)cccc2n(C)c1=O)c1ccccc1    86900

---

# Assay Procedure: in vivo
# Settings: male, C57BL/6, mouse, po, 5 mg/kg, Terminal t1/2
Outcome Measure: half-life

CCN(C(=O)c1c(O)c2c(Cl)cccc2n(C)c1=O)c1ccccc1    3.01 h

---

# Assay Procedure: in vivo
# Settings: male, C57BL/6, mouse, po, 5 mg/kg, AUClast
Outcome Measure: AUC(0-t) (ng·h/mL)

CCN(C(=O)c1c(O)c2c(Cl)cccc2n(C)c1=O)c1ccccc1 [Laquinimod]    86700

---

# Assay Procedure: in vivo
# Settings: male, C57BL/6, mouse, po, 5 mg/kg, Cmax
Outcome Measure: Cmax (ng/mL)

CCN(C(=O)c1c(O)c2c(Cl)cccc2n(C)c1=O)c1ccccc1 [Laquinimod]    31100
